Recorded IC50 chromogenic by entry
- assay system: cynomolgus PAI-1 (cynomolgus, UniProt P05121 24-402 (human entry), limits assumed)
- measurement protocol: cell-based or functional assay
property: IC50 chromogenic (nM)

{"columns": ["binder", "property", "measured number"],
 "data": [
  ["Antibody 03, IgG4, not germlined (antibody, V domains shown) VH: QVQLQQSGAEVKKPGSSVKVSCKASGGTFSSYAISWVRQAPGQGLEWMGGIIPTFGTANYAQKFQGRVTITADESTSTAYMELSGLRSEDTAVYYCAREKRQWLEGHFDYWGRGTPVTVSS VL: DIQMTQSPSFLSASIGDRVTITCRASEGIYRSLAWYQQKPGKAPKLLIYKASSLASGAPSRFSGSGSGTDFTLTISGLQPDDFATYYCQQYSNYPLTFGGGTKLEIK", "IC50 chromogenic", 0.5],
  ["Antibody 20, scFv (scFv, V domains shown) VH: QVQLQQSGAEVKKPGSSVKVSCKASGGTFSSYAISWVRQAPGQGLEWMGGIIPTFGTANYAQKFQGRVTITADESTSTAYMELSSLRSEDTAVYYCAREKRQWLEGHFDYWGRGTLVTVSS VL: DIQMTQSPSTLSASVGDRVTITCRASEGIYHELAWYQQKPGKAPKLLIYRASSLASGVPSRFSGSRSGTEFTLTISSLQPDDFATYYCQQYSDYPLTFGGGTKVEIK", "IC50 chromogenic", 1.3],
  ["Antibody 21, scFv (scFv, V domains shown) VH: PVQLQQSGAEVKKPGSSVKVSCKASGGTFSSYAISWVRQAPGQGLEWMGGIIPTFGTANYAQKFQGRVTITADESTSTAYMELSGLRSEDTAVYYCAREKRQWLEGHFDYWGRGTPVTVSS VL: DIQMAQSPSFLSASIGDRVTITCRASEGIYHNLAWYQQKPGKAPKLLIYRASSLASGAPSRFSGSGSGTDFTLTISSLQPDDFATYYCQQYSNYPLTFGGGTKLEIK", "IC50 chromogenic", 1.6],
  ["Antibody 06, scFv (scFv, V domains shown) VH: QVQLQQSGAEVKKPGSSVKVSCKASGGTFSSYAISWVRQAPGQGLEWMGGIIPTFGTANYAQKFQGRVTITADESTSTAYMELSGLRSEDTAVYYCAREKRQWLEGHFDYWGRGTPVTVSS VL: DIQMTQSPSFLSASIGDRVTITCRASEGIYHELAWYQQKPGKAPKLLIYRASSLASGAPSRFSGSGSGTDFTLTISSLQPDDFATYYCQQYSNYPLTFGRGTKLEIK", "IC50 chromogenic", 31.6],
  ["Antibody 19, scFv (scFv, V domains shown) VH: QVQLQQSGAEVKKPGSSVKVSCKASGGTFSSYAISWVRQAPGQGLEWMGGIIPIFDTANYAQKFQGRVTITADESTSTAYMELSGLRSEDTAVYYCARERRQWLEGHFDYWGRGTPVTVSS VL: DIRMTQSPSFLSASIGDRVTITCRASEGIYHELAWYQQKPGKAPKLLIYRASSLASGAPSRFSGSGSGTEFTLTISSLQPDDFATYYCQQYSNYPLTFGGGTKLEIK", "IC50 chromogenic", 10.8],
  ["Antibody 26, scFv (scFv, V domains shown) VH: QVQLQQSGAEVKKPGTSVKVSCKASGGTFSSYAISWVRQAPGQGLEWMGGIIPIFGTANYAQKFQGRVTITADESTSTAYMELSSLRSEDTAVYYCAREKRQWLEGHFDYWGRGTPVTVSS VL: DIQMTQSPSFLSASIGDRVTITCRASEGIYHTLAWYQQKPGKAPKLLIYRASSLASGAPSRFSGSGSGTDFTLTISSLQPDDFATYYCQQYSNYPLTFGGGTKLEIK", "IC50 chromogenic", 1.2],
  ["Antibody 14, scFv (scFv, V domains shown) VH: QVQLQQSGAEVKKPGSSVKVSCKASGGTFSSYAISWVRQAPGQGLEWMGGIIPTFGTANYAQKFQGRVTITADESTSTAYMELSGLRSEDTAVYYCAREKRQWLEGHFDYWGRGTLVTVSS VL: DIQMTQSPSFLSASIGDRVTITCRASEGIYHNLAWYQQKPGKAPKLLIYRASSLASGAPSRFSGSGSGTDFTFTISSLQPDDFATYYCQQYSNYPLTFGGGTKLEIK", "IC50 chromogenic", 0.8],
  ["Antibody 01, IgG1, not germlined (antibody, V domains shown) VH: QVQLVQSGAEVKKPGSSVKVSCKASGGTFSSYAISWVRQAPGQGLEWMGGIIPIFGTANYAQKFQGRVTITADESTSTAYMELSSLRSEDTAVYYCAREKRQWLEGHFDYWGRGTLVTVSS VL: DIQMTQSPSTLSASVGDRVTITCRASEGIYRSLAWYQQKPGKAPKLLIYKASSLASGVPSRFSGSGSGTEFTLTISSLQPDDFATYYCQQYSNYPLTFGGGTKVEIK", "IC50 chromogenic", 0.7],
  ["Antibody 18, scFv (scFv, V domains shown) VH: QVQLQQSGAEVKKPGSSVKVSCKASGGTFSSYAISWVRQAPGQGLEWMGGIIPTFGTANYAQKLQGRVTITADESTSTAYMELSGLRSEDTAVYYCAREKRQWLEGHFDYWGRGTPVTVSS VL: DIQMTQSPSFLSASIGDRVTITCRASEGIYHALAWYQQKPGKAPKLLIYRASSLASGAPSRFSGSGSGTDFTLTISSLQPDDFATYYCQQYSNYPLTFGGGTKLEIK", "IC50 chromogenic", 0.5],
  ["Antibody 10, scFv (scFv, V domains shown) VH: QVQLQQSGAEVKKPGSSVKVSCKASGGTFSSYAISWVRQAPGQGLEWMGGIIPTFGTANYAQKFQGRVTITADESTSTAYMELSSLRSEDTAVYYCAREKRQWLEGHFDYWGRGTPVTVSS VL: DIQMTQSPSFLSASIGDRVAITCRASEGIYHSLAWYQQKPGKAPKLLIYRASSLASGAPSRFSGSGSGTDFTLTISSLQPDDFATYYCQQYSNYPLTFGGGTRLEIK", "IC50 chromogenic", 0.5]
]}
